Below, each of the binders is paired with its reported EC50 cAMP 0% FBS value.
# Assayed Target: human GLP-1R (human, UniProt P43220 24-463)
# Test Details: cell-based or functional assay
Bridges are numbered along the chain shown (N, C = ends). Where no end group is shown, it is not given here. [ ]: non-standard residue; d: D form. staple K20 = not defined here; staple K9 = not defined here; Aib = CC(C)(N)C(=O)O

Binder	EC50 cAMP 0% FBS [nM]
Y[Aib]EGTFTSDYSIYLDKKAA[Aib]EFVKWLLAGGPSSGAPPPS (linker 17-24 via staple K20; reading uncertain) [Conjugate 149]	0.05
Y[Aib]EGTFTSDYSIYLDKKAQ[Aib]AFVKWLIAQGPSSGAPPPS (linker 17-24 via staple K9; reading uncertain) [Conjugate 164]	0.14
Y[Aib]EGTFTSDYSIYKDKQAA[Aib]KFVNWLLAGGPSSGAPPPS (linker 14-21 via staple K9; reading uncertain) [Conjugate 144]	0.012
Y[Aib]EGTFTSDYSIYLDKKAQ[Aib]AFVKWLIAQGPSSGAPPPS (linker 17-24 via staple K20; reading uncertain) [Conjugate 162]	0.05
